- measured-on: Retinoic acid receptor beta (Homo sapiens, UniProt P10826)
- Sequence (P10826 whole entry): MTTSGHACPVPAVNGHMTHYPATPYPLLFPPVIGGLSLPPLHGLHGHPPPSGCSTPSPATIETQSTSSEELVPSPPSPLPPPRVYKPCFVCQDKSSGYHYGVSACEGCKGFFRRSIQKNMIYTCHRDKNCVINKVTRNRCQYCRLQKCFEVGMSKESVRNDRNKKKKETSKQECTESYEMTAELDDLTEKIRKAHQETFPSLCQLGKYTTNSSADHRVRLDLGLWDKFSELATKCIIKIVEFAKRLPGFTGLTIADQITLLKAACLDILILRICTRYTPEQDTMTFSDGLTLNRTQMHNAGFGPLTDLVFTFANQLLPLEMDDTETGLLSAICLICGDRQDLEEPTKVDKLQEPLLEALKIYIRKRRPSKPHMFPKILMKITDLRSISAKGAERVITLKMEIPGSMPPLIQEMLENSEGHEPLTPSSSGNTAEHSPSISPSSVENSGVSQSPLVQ
Field: IC50. System: Retinoic acid receptor beta (Homo sapiens, UniProt P10826). Provenance: assorted publications.

CC1=C(/C=C/C(C)=C/C=C/C(C)=C/C(=O)n2ccnc2)C(C)(C)CCC1
500 nM
CC1(C)CCC(C)(C)c2nc(-c3cc(-c4ccc(C(=O)O)cc4)[nH]n3)cnc21
290 nM
CC1=C(/C=C/C(C)=C/C=C/C(C)=C/C(=O)O)C(C)(C)CCC1n1ccnc1 (racemic)
175 nM
CC(C)COc1cc(OC(C)C)cc(C(=O)Nc2ccc(C(=O)O)cn2)c1
135 nM

Look at each compound and report its IC50.
1. CC1=C(/C=C/C(C)=C/C=C/C(C)=C/C(=O)n2cncn2)C(C)(C)CCC1
2. C/C(=C\c1ccc(C(=O)O)cc1)c1cc2c(cc1C(C)C)C(C)(C)CCC2(C)C
3. CC1(C)CCC(C)(C)c2nc(-c3ccc(-c4ccc(C(=O)O)cc4)o3)cnc21

Result:
90 nM
150 nM
39 nM

###

Field: IC50. System: Retinoic acid receptor beta (Homo sapiens). Provenance: assorted publications.
- measured-on: Retinoic acid receptor beta (Homo sapiens)
- Sequence (P10826 whole entry): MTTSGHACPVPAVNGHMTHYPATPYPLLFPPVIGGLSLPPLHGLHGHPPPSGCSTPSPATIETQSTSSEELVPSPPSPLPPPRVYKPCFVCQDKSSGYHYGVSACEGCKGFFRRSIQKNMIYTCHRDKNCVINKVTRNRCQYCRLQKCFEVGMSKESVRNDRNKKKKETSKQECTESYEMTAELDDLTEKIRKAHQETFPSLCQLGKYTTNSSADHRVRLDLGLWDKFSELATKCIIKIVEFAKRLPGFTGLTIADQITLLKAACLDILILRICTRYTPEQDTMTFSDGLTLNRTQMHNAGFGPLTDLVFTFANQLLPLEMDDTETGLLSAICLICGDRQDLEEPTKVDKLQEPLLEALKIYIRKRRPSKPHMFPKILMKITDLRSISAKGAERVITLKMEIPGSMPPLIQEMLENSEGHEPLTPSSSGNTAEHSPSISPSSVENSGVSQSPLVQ
I'd appreciate it if you marked entries rule met when IC50 is lower than 0.007 µM and rule not met when it is not.

# count of solved cases: 4
CC1=C(/C=C/C(C)=C/C=C/C(C)=C/C(=O)O)C(C)(C)CCC1n1cnnc1 (racemic)
rule not met
CC1(C)CCC(C)(C)c2nc(-c3csc(-c4ccc(C(=O)O)cc4)n3)cnc21
rule not met
COC[C@H](C)Oc1cc(Oc2cc(F)cc(F)c2)cc(C(=O)Nc2ccc(C(=O)O)cn2)c1
rule met
CC1=C(/C=C/C(C)=C/C=C/C(C)=C\C(=O)O)C(C)(C)CCC1n1ccnc1 (racemic)
rule not met

Continue with the compound presented below.
Ask: A record lists CC1(C)CCC(C)(C)c2nc(-c3cc(-c4ccc(C(=O)O)cc4)co3)cnc21 . Is its IC50 below 0.007 µM?
Result: rule met
